measurement.target: PDK1 (His6-PDK1(Δ1-50)) (Homo sapiens (Human), UniProt O15530)
Sequence (O15530 51-556): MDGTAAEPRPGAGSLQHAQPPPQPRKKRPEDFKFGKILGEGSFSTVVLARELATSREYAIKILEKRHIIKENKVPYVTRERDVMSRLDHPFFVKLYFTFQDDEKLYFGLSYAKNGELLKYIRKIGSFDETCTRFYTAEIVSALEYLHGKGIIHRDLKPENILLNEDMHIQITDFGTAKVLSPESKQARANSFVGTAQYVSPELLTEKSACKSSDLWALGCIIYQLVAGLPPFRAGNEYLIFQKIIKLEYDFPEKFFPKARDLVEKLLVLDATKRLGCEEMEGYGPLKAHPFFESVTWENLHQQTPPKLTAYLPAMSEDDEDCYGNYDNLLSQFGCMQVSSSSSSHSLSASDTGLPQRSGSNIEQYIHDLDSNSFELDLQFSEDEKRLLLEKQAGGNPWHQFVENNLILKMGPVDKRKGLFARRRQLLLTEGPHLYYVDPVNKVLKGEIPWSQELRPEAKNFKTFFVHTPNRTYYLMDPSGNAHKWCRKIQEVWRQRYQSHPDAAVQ
procedure.details: Test for the inhibition of PDK1 (enzymatic, flashplate, 33P-ATP)
Type: biochemical
run.conditions: enzymatic PDK1 inhibition assay; read-out: enzymatic IC50
pIC50: −log10 of the molar value.
Group membership follows pIC50 per the scheme group 1 (below 7), group 2 (7 to below 8), group 3 (8 or more)

Cn1cc(-c2cnc3[nH]cc(-c4cc(N5CCc6cc(F)ccc65)nc(N)n4)c3c2)cn1 [A17] : group 1
CN(c1cccc(F)c1)c1cc(-c2c[nH]c3ncc(-c4cnn(C)c4)cc23)nc(N)n1 [A1] : group 2
Cn1cc(-c2cnc3[nH]cc(-c4cc(C5(c6ccccc6F)CC5)nc(N)n4)c3c2)cn1 [A42] : group 2
CC(=O)NCCCN(c1ccccc1)c1cc(-c2c[nH]c3ncc(-c4cnn(C)c4)cc23)nc(N)n1 [A43] : group 2
Cn1cc(-c2cnc3[nH]cc(-c4cc(N(CCO)c5ccccc5Cl)nc(N)n4)c3c2)cn1 [A16] : group 3

Query: Bin this entry: CC(C)n1cc(-c2cnc3[nH]cc(-c4cc(N(C)c5ccccc5Cl)nc(N)n4)c3c2)cn1 [A19]
Reply: group 2

Query: Bin this entry: CC(C)n1cc(-c2cnc3[nH]cc(-c4cc(N5CCc6cc(F)ccc65)nc(N)n4)c3c2)cn1 [A18]
Reply: group 1

Query: Bin this entry: Cn1cc(-c2cnc3[nH]cc(-c4cc(C5(c6ccccc6)CC5)nc(N)n4)c3c2)cn1 [A3]
Reply: group 2

Query: Bin this entry: CN(c1cccc(Cl)c1)c1cc(-c2c[nH]c3ncc(-c4cnn(C)c4)cc23)nc(N)n1 [A8]
Reply: group 2

Query: Bin this entry: CCN(c1ccc(Cl)cc1)c1cc(-c2c[nH]c3ncc(-c4cnn(C)c4)cc23)nc(N)n1 [A13]
Reply: group 2

Query: Bin this entry: Cn1cc(-c2cnc3[nH]cc(-c4cc(N5CCOc6ccccc65)nc(N)n4)c3c2)cn1 [A27]
Reply: group 3

Query: Bin this entry: Cn1cc(-c2cnc3[nH]cc(-c4cc(C5(c6ccc(Cl)cc6)CCCC5)nc(N)n4)c3c2)cn1 [A7]
Reply: group 1

Query: Bin this entry: Cn1cc(-c2cnc3[nH]cc(-c4cc(N(CCC(=O)O)c5ccccc5Cl)nc(N)n4)c3c2)cn1 [A23]
Reply: group 3
